Test system: IRF pathway in THP1-Dual™ cells, THP-1 (HAQ)
ASSAY METHOD TEXT: Reporter gene expression assay in THP-1 cells (THP1-Dual, IRF pathway Lucia luciferase reporter, 2′,3′-cGAMP stimulation)
Type: cell-based, human
MEASUREMENT CONDITIONS: Homo sapiens; THP1-Dual cells preincubated with compound 10 minutes, stimulation with 5 μM 2′,3′-cGAMP for 20 hr, QUANTI-Luc readout of the supernatant; read-out: THP-1 (HAQ) Activity (IC50 value range)
pIC50: −log10 of the molar value.
RESULT TYPE: pIC50

So what's the measured pIC50 for this one? O=C(Nc1ccc2c(c1)N(Cc1ccccc1)C(=O)CS2)Nc1c[nH]c2ccc(-c3cccc(CO)c3)cc12
> 6.00

So what's the measured pIC50 for this one? CS(=O)(=O)c1cccc(-c2ccc3[nH]cc(NC(=O)Nc4ccc5c(c4)N(Cc4ccccc4)C(=O)CS5)c3c2)c1
5.00 to 6.00

So what's the measured pIC50 for this one? CC1Sc2ccc(NC(=O)Nc3c[nH]c4ccccc34)cc2N(Cc2ccccc2)C1=O (stereo not shown)
> 6.00

So what's the measured pIC50 for this one? O=C(Nc1ccc2c(c1)N(Cc1ccccc1)C(=O)CS2)Nc1c[nH]c2ccc(-c3cnn(CC4CC4)c3)cc12
> 6.00

So what's the measured pIC50 for this one? N#CCCn1cc(-c2ccc3[nH]cc(NC(=O)Nc4ccc5c(c4)N(Cc4ccccc4)C(=O)CS5)c3c2)cn1
5.00 to 6.00

So what's the measured pIC50 for this one? O=C(Nc1ccc2c(c1)N(Cc1ccccc1)C(=O)CS2)Nc1c[nH]c2ncc(Br)cc12
> 6.00

So what's the measured pIC50 for this one? O=C(Nc1ccc2c(c1)OCCN2Cc1ccccc1)Nc1c[nH]c2ccccc12
> 6.00

These measurements were taken from patent US20260159511A1.
